Source listed as PubChem BioAssay (NCI).

# Test system: BT-549 breast
# measurement description: NCI tumour cell line growth inhibition, 48 h; in the data active = GI50 below about 0.43 µM; inactive = the rest
Answer with one of the outcomes active, inactive

Could you please tell me the result logged for COC(=O)[C@@H](NC(=O)NC(=O)NC(=O)CI)C(C)C in this assay?
inactive

Same question, COc1ccc(-c2[nH]ncc2-c2cc3c(c(OC)c2)OCC(=O)N3)cc1 this time
inactive

Request: CN(C)CCCOc1ccccc1NC1=C(Cl)C(=O)C(Nc2ccccc2OCCCN(C)C)=C(Cl)C1=O
inactive

Can you handle COC1=CC(c2ccc[nH]2)=N/C1=C\c1[nH]c(C)c(C(=O)OCc2ccccc2)c1C next?
active

And what about the molecule CC1=C([Se]CC(OC(=O)[C@@H](CSSC(C)(C)C)NC(=O)OC(C)(C)C)C(=O)NC(C)(C)C)C(=O)c2ccccc2C1=O (stereo partly specified) ?
inactive

Likewise for CC1=NN(C(=O)c2ccccc2O)C(=O)/C1=C/c1ccc([N+](=O)[O-])cc1 ?
active

How about this molecule: FC(F)(F)c1ccc(-c2nc(-c3nc4cc(Cl)c(Cl)cc4[nH]3)c3ccccn23)cc1
inactive

Check Nc1ccn(C2OC(CO)C(O)C2F)c(=O)n1 (stereo unspecified) too.
inactive

Moving on to the next molecule: COc1cc(/C(Cl)=C/C=C/C(=O)c2c(C)[n+]([O-])c3ccc(Cl)cc3[n+]2[O-])cc(OC)c1OC
inactive

Input COc1ccc(C#Cc2ccccc2C#CCCCCO)cc1
inactive

Here is the next molecule: O=C(c1ccccc1)c1c(NCC(O)CN2CCCC2)n(Cc2ccccc2)c(=O)n(Cc2ccccc2)c1=O (stereo unspecified)
inactive
